- Study target: MAP3K5 (human)
- Method summary: radiometric filter-binding kinase assay
- Experimental context: compound 10.0 µM
Measured quantity: residual activity (%)

| Given smiles | residual activity, % |
| --- | --- |
| NS(=O)(=O)OC[C@@H]1C[C@@H](n2ccc3c(N[C@H]4CCc5ccccc54)ncnc32)C[C@@H]1O | 87 |
| Oc1ccc(/C=C/c2cc(O)cc(O)c2)cc1 | 77 |
| COc1cc2ncn(-c3cc(OCc4ccccc4S(C)(=O)=O)c(C#N)s3)c2cc1OC | 69 |
| NCC(=O)Nc1ccc(-n2nc(C(F)(F)F)cc2-c2ccc3c(ccc4ccccc43)c2)cc1 | 83 |
| CCCCCc1ccc(/C=C/[C@H](O)[C@@H](CO)NC)cc1 | 94 |

* * *

- Study target: MAPK11 (human)
- Method summary: radiometric filter-binding kinase assay
- Experimental context: compound 0.1 µM
Measured quantity: residual activity (%)

| Compound | Study target | Experimental result |
| --- | --- | --- |
| O=C(O)c1ccc(-c2c[nH]c3ncc(-c4ccccc4)cc23)cc1C1CCCC1 | MAPK11 (human) | 109 |
| NC(=O)c1cc2c(-c3cccc(-c4ccccc4)c3)cnc(N)c2s1 | MAPK11 (human) | 96 |
| O=C(Nc1ccccc1-c1cn2c(CN3CCNCC3)csc2n1)c1cnc2ccccc2n1 | MAPK11 (human) | 102 |
| CCn1c(-c2nonc2N)nc2cncc(CNC3CCNCC3)c21 | MAPK11 (human) | 102 |
| CNC(=O)C1[C@H]2O[C@@](C)([C@@H]1N)n1c3ccccc3c3c4c(c5c6ccccc6n2c5c31)C(=O)NC4 (some centres undefined) | MAPK11 (human) | 96 |
| C/C(=C1/C(=O)Nc2ccc(NC(N)=O)cc21)c1ccc[nH]1 | MAPK11 (human) | 105 |
| CCc1cncnc1N1CCN(Cc2nc3cc(C(F)(F)F)ccc3[nH]2)CC1 | MAPK11 (human) | 88 |
| NC(=O)Nc1ccc2c(c1)/C(=C/c1cc(-c3cccnc3)c[nH]1)C(=O)N2 | MAPK11 (human) | 103 |
| CCCCCc1ccc(/C=C/[C@H](O)[C@@H](CO)NC)cc1 | MAPK11 (human) | 99 |
| CN1CCN(CCOc2cc(OC3CCOCC3)c3c(Nc4c(Cl)ccc5c4OCO5)ncnc3c2)CC1 | MAPK11 (human) | 85 |
| Cc1ccc(Sc2cnc(Nc3cccc(Br)n3)s2)cc1C(=O)N1CCN(C(=O)CN)CC1 | MAPK11 (human) | 87 |
| Cc1cccc(-c2nn(C(=S)Nc3ccccc3)cc2-c2ccnc3ccccc23)n1 | MAPK11 (human) | 89 |
| CNc1nc(-c2ccc3c(N)n[nH]c3c2)cc(N2C[C@@H](C(=O)NC3CCCCC3)CC[C@H]2C)n1 | MAPK11 (human) | 129 |
| COc1ccc(-n2ncc3cnc(Nc4cc(OC)c(OC)c(OCCCN5CCN(C)CC5)c4)nc32)cc1 | MAPK11 (human) | 103 |

* * *

- Study target: MAPKAPK2 (human)
- Method summary: radiometric filter-binding kinase assay
- Experimental context: compound 1.0 µM
Measured quantity: residual activity (%)

Some solved entries appear below for comparison.
| Molecule | Experimental result |
| --- | --- |
| CNc1nc(-c2ccc3c(N)n[nH]c3c2)cc(N2C[C@@H](C(=O)NC3CCCCC3)CC[C@H]2C)n1 | 86 |
| NC(=O)c1c(NC(=O)C2CC2)sc2c1CCCC2 | 98 |
| O=C(NOCC(O)CO)c1ccc(F)c(F)c1Nc1ccc(I)cc1Cl (stereo not given) | 104 |

I. C=C1C(=O)OC2C1CC/C(C)=C/CCC1(C)OC21 (stereo not given)
II. CCn1c(-c2nonc2N)nc2cncc(CNC3CCNCC3)c21
Prompt: Looking at I and II , which one comes out lower in residual activity terms? Label of pick, please.
Response: I
(I: 72%, II: 104%)
